Please provide measured IC50 for the entries that follow.
Tested on: 994946-033-R-J1-PDC complex spheroid viability;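 also: spheroids exposed to drugs for 7 days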
Assay: Anticancer human tumor 994946-033-R-J1-PDC patient-derived melanoma cell line growth inhibition [POLQ]
Details: curve of first compound; second compound 0.316 µM
Procedure: Multicellular complex tumor spheroid response to Polymerase (POL) inhibitors (novobiocin, ART-558, RP6685) in combination with a variety of drugs and investigational agents in selected tumor cell lines The POL inhibitors (novobiocin, ART-558, and RP6685) were evaluated both individually and in combination with standard of care and investigational anticancer small molecules within a complex spheroid model of solid tumors. . […]

Query string: Give recorded IC50. C=CC(=O)N1CCN(c2nc(=O)n(-c3c(C)ccnc3C(C)C)c3nc(-c4c(O)cccc4F)c(F)cc23)C(C)C1 (stereo not given) + Cc1cccc(N(C)C(=O)C2C(O)CCN2c2nc(C)cc(C(F)(F)F)c2C#N)c1
Result string: > 10 µM

Query string: Provide measured IC50 value, entry: CCc1c2c(nc3ccc(O)cc13)-c1cc3c(c(=O)n1C2)COC(=O)[C@]3(O)CC + Cc1cccc(N(C)C(=O)C2C(O)CCN2c2nc(C)cc(C(F)(F)F)c2C#N)c1
Result string: < 0.00316 µM

Query string: Read the entry Nc1ccn(C2OC(CO)C(O)C2(F)F)c(=O)n1 (stereo not given) + COC1C(OC(N)=O)C(O)C(Oc2ccc3c(O)c(NC(=O)c4ccc(O)c(CC=C(C)C)c4)c(=O)oc3c2C)OC1(C)C and write its reported IC50.
Result string: < 0.0316 µM

Query string: Tell me IC50 reported for CCc1cc2c(N3CCc4c(cc(Cn5ccnc5)cc4-c4cn(C)nc4C(F)(F)F)C3=O)ccnc2c(OC)n1 + Nc1ccc(C#CCN(C(=O)Cc2ncc(C(F)(F)F)cc2C(F)(F)F)c2ccc(F)cc2)nn1
Result string: > 10 µM

Query string: Identify the reported IC50 for the following entry. Cn1ncnc1[C@H]1c2n[nH]c(=O)c3cc(F)cc(c23)N[C@@H]1c1ccc(F)cc1 + COC1C(OC(N)=O)C(O)C(Oc2ccc3c(O)c(NC(=O)c4ccc(O)c(CC=C(C)C)c4)c(=O)oc3c2C)OC1(C)C
Result string: > 0.1 µM

Query string: Using the record for Cn1ncnc1[C@H]1c2n[nH]c(=O)c3cc(F)cc(c23)N[C@@H]1c1ccc(F)cc1 + Cc1cccc(N(C)C(=O)C2C(O)CCN2c2nc(C)cc(C(F)(F)F)c2C#N)c1 , state its measured IC50.
Result string: > 0.1 µM

Query string: Item CCc1cc2c(N3CCc4c(cc(Cn5ccnc5)cc4-c4cn(C)nc4C(F)(F)F)C3=O)cc(C)nc2c(OC)n1 + Cc1cccc(N(C)C(=O)C2C(O)CCN2c2nc(C)cc(C(F)(F)F)c2C#N)c1 : provide IC50
Result string: > 10 µM

Query string: Identify the reported IC50 for the following entry. C=CC(=O)N1CCN(c2nc(=O)n(-c3c(C)ccnc3C(C)C)c3nc(-c4c(O)cccc4F)c(F)cc23)C(C)C1 (stereo not given) + COC1C(OC(N)=O)C(O)C(Oc2ccc3c(O)c(NC(=O)c4ccc(O)c(CC=C(C)C)c4)c(=O)oc3c2C)OC1(C)C
Result string: > 10 µM

Query string: Give the reported value of IC50 for this record: CC1COCCN1c1cc(C2(O)CC3CCC(C2)O3)c2cnn(-c3ccn[nH]3)c2n1 (stereo not given) + Cc1cccc(N(C)C(=O)C2C(O)CCN2c2nc(C)cc(C(F)(F)F)c2C#N)c1
Result string: < 0.0316 µM

Query string: Please supply the value of reported IC50 for the item CCc1cc2c(N3CCc4c(cc(Cn5ccnc5)cc4-c4cn(C)nc4C(F)(F)F)C3=O)ccnc2c(OC)n1 + Cc1cccc(N(C)C(=O)C2C(O)CCN2c2nc(C)cc(C(F)(F)F)c2C#N)c1
Result string: > 10 µM
